- procedure.details: viability gain of MRP-1-high H69AR cells under doxorubicin, pilot screen, MRP-1 activator project, CellTiter-Glo, duplicate (AID 807);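 also: compound pretreatment 18-22 h then 72 h combined with doxorubicin; 0% = doxorubicin alone and 100% = vehicle without doxorubicin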
- measurement.context: H69AR viability with doxorubicin, CellTiter-Glo luminescence; at 10 µM; active compounds read high
viability increase values, listed per item
The reply should be a number in %, with the unit left off.

{"compound": "CN(CC(CC(=O)Nc1nncs1)c1ccccc1)S(=O)(=O)c1ccccc1 (stereo unspecified)", "uom": "%", "viability increase": -1.16}
{"compound": "Cc1nn2c(=O)cc(CSc3nc4ccccc4[nH]3)nc2s1", "uom": "%", "viability increase": -2.31}

*Q* Return reported viability increase. Input compound: O=C(NCCN1C(=O)C2C3C=CC(C3)C2C1=O)NCc1ccccc1 (stereo unspecified)
*A* -0.69

*Q* Quote viability increase reported for CCCC(=O)C1=C(SCC)CC(C)(C)C(C(=O)OC)C1=O (stereo unspecified) please.
*A* -2.57
